Hi there, I'd appreciate the recorded IC50 for every entry that follows.
Molecular target: HLA-A1101 (Homo sapiens, UniProt P04439, A114D/D185E/E176A/F33Y/L180Q/S129P/T187R)
Construct: expressed in transfected cells; host or cells: HMy2.CIR
Experiment: cell-based
Format: binding
Conditions: A1101; class from inhibition at 5 and 15 μM of FITC-labeled reference peptide binding; read-out: Affinity
Where no end group is shown, it is not given here.

Some solved cases for reference:
RTAHTNDVK [Peptide P39] :: < 5 µM
CTPAGYAILK [Peptide P23] :: < 5 µM
SVQCTHGIK [Peptide P25] :: < 5 µM

Let us move to another entry and its IC50.
Entry ATLWCVHQR [Peptide P34] , IC50 reported as 5 to 15 µM

###

Target: HLA-A0101 (Homo sapiens, UniProt P04439, A114D/A174V/A182V/D101N/D185E/E176A/E190D/L180R/Q94H/R68K/S129P/T187R/V100A/V91M/W191G)
Construct: expressed in transfected cells; host or cells: HMy2.CIR
Experiment: Peptide competitive binding assay, HMy2.CIR cells expressing A0101
Details: A0101; class from inhibition at 5 and 15 μM of FITC-labeled reference peptide binding; read-out: Affinity
Where no end group is shown, it is not given here.
readout-name: IC50

Entry YSENSSEYY [Peptide P68] , IC50 reported as < 5 µM

###

Biological target: HLA-A0203 (Homo sapiens, UniProt P04439, A173T/D140Y/D185E/D98H/E277Q/G131W/G231S/I119V/I121R/I166T/I218V/L180W/L300P/L318F/N151K/N90K/P208A/P217A/Q86G/Q94H/R138H/R169H/T345S)
Construct: expressed in transfected cells; host or cells: HMy2.CIR
Assay: cell-based
Assay type: binding
Conditions: A0203; peptide 15 μM vs FITC-labeled reference peptide 300 nM, 24 h, 4°C, flow cytometry
Hi there, I'd appreciate the recorded 15-μM inhibition (%) for every entry that follows.
One number for each entry, in %.

Some solved cases for reference:
YMLKHLVWA [Peptide P7] :: 19.15
QMQEDVISL [Peptide P4] :: 0.00
SLFNTVATL [Peptide P10] :: 42.50

Let us move to another entry and its 15-μM inhibition (%).
Entry ALQTGTEEL [Peptide P8] , 15-μM inhibition (%) reported as 5.56

###

Molecular target: HLA-A0201 (Homo sapiens, UniProt P04439, D140Y/D185E/D98H/E176V/E277Q/G131W/G231S/I119V/I121R/I166T/I218V/L300P/L318F/N151K/N90K/P208A/P217A/Q86G/Q94H/R138H/R169H/T345S)
Construct: expressed in transfected cells; host or cells: HMy2.CIR
Experiment: cell-based
Type: binding
Conditions: A0201; peptide 15 μM vs FITC-labeled reference peptide 300 nM, 24 h, 4°C, flow cytometry; read-out: 15-μM inhibition (%)
Where no end group is shown, it is not given here.
readout-name: inhibition at 15 µM (%)
Give bare numbers, in %.

Some solved cases for reference:
SLAEGEIII [Peptide P3] :: 66.2
QLPEKDSWTV [Peptide P14] :: 81.5
ALTDIVPLT [Peptide P12] :: 72.2
IIFAVLSIV [Peptide P5] :: 42.8
ALFYKLDIV [Peptide P2] :: 70.5

// batch mode: one inhibition at 15 µM value per listed entry
1. SLVDTIAIAV [Peptide P1]
2. YQYMDDLYV [Peptide P15]
3. RLINCNTSV [Peptide P6]

1. 78.5
2. 83
3. 23.6

All figures here come from paper PMC11850406.
